target-of-assay: human D2L receptors (Homo sapiens (Human))
Sequence (P14416 whole entry): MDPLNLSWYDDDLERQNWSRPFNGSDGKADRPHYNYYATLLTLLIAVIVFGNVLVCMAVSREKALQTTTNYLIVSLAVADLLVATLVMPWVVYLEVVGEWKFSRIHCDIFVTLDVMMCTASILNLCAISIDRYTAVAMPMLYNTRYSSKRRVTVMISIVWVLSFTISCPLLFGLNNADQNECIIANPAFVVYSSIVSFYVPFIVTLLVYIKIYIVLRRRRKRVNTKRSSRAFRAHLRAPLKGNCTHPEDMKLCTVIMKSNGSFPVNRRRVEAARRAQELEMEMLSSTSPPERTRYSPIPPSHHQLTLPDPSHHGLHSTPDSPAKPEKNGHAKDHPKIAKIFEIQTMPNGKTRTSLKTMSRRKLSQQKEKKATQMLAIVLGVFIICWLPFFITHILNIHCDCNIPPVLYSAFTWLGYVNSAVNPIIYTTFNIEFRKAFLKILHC
experiment-description: [35S]GTPγS Binding Assay, CHO D2 membranes
condition-info: antagonist vs dopamine; Ke = functional Ki; read-out: CHO-hD2 Ke
endpoint-name: Ki

Entry CC(C)(C)c1nc(N2CCN(CCCCNC(=O)c3cn4ccccc4n3)CC2)cc(C(F)(F)F)n1 — recorded Ki = 0.111 µM

* * *

target-of-assay: D3R (Homo sapiens (Human), UniProt P35462)
Sequence (P35462 whole entry): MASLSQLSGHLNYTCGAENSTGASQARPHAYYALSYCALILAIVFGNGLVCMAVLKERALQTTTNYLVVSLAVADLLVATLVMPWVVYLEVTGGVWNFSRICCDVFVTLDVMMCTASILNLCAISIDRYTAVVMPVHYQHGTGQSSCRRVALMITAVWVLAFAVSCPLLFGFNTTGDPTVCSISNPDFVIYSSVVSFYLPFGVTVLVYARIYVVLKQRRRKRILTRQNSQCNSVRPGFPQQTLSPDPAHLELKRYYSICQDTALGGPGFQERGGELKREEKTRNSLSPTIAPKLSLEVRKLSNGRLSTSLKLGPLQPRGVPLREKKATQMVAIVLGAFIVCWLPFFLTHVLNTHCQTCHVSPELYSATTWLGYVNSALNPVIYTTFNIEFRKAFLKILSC
experiment-description: β-Arrestin Recruitment Assay, U2OS DRD3
Assay type: cell-based
condition-info: antagonist vs EC80 8 nM PD128907, U2OS DRD3 cells; read-out: D3 IC50
Method: Antagonist potency of the compounds against agonist induced recruitment of β-arrestin by D3R and D2LR was measured using DiscoverRx PathHunter eXpress kits. […] After incubation at 37° C. for 90 min, the DiscoveRx detection reagent was added, the plates were incubated at room temperature for 60 min and the luminescence was measured on a Synergy 4 plate reader (BioTek). The data were plotted and the agonist EC80 values were calculated using GraphPad Prism software. […]
endpoint-name: pIC50
Please note pIC50 is a logarithmic value: minus log10 of concentration in mol/L. Answer with that number alone.

CN(C)Cc1cccc2nc(C(=O)NCCCCN3CCN(c4cc(C(F)(F)F)nc(C(C)(C)C)n4)CC3)cn12 | 7.54

Entry CC(C)(C)c1nc(N2CCN(CCCCNC(=O)N3CCN(c4ccccc4)CC3)CC2)cc(C(F)(F)F)n1 — recorded pIC50 = 8.21

Entry CC(C)(C)c1nc(N2CCN(CCCCNC(=O)N3CCc4c([nH]c5ccccc45)C3)CC2)cc(C(F)(F)F)n1 — recorded pIC50 = 7.58

Entry CC(C)(C)c1nc(N2CCN(CCCCNC(=O)c3cn4ccccc4n3)CC2)cc(C(F)(F)F)n1 — recorded pIC50 = 9.25

Entry O=C(NCCCCN1CCN(c2ccnc3ccccc23)CC1)C1CCC(c2ccccc2)CC1 (stereo not drawn) — recorded pIC50 = 7.47

Entry CN(C)Cc1c(C(=O)NCCCCN2CCN(c3cc(C(F)(F)F)nc(C(C)(C)C)n3)CC2)nc2ccccn12 — recorded pIC50 = 8.14

Entry COc1ccc2c(c1)CN(C(=O)NCCCCN1CCN(c3cc(C(F)(F)F)nc(C(C)(C)C)n3)CC1)C2 — recorded pIC50 = 9.10

Entry CC(C)(C)c1nc(N2CCN(CCCCNC(=O)N3CCC(c4ccccc4)CC3)CC2)cc(C(F)(F)F)n1 — recorded pIC50 = 7.55

Entry Cc1cc(N2CCN(CCCCNC(=O)N3CCN(c4ccccc4)CC3)CC2)nc(C(C)(C)C)n1 — recorded pIC50 = 8.41

These measurements were taken from patent US9598387B2.
